Source of measurements: PubChem BioAssay (NCI)

What TGI was measured for each of the following?
# Tested on: IGROV1 ovarian
# experiment_description: NCI tumour cell line growth inhibition, 48 h

Note to self: TGI recorded for COc1cc2cc(C(=O)N3CC(CCl)c4ccc([N+](=O)[O-])cc43)[nH]c2c(OC)c1OC (stereo not given) was > 100 µM

Note to self: TGI recorded for CCN1c2cc(Br)cc3[nH]c(=O)n(c23)CCC1C (stereo not given) was 31.5 µM

Note to self: TGI recorded for COc1ccc(C2ON(c3ccccc3)CC=C2C)cc1 (stereo not given) was > 100 µM

Note to self: TGI recorded for "O=C(Cc1ccccc1)NN1C(=O)/C(=C\c2cccc([N+](=O)[O-])c2)SC1=Nc1ccccc1" was > 100 µM

Note to self: TGI recorded for CC(NCc1c(O)ccc2ccc(=O)oc12)C(=O)O (stereo not given) was > 100 µM

====

# System: RPMI-8226 leukemia
# experiment_description: NCI tumour cell line growth inhibition, 48 h
recorded_endpoint: TGI

Note to self: TGI recorded for CC(=O)Nc1ccc(C(=O)NN2C(=O)CSC2c2ccc(O)cc2)cc1 (centres undefined) was > 100 µM

Note to self: TGI recorded for "COc1cc(/C=C/c2cc(/C=C/c3ccc(O)c(OC)c3)n(C(=O)Nc3ccccc3Cl)n2)ccc1O" was 1.55 µM

Note to self: TGI recorded for COc1cc(N2C(=O)[C@H](c3ccccc3)C2c2ccc(SC)cc2)cc(OC)c1OC (some centres undefined) was 7.68 µM

Note to self: TGI recorded for CCCC1CC(=O)NC(=O)C1C(=O)OC(C)(C)C (centres undefined) was > 100 µM

Note to self: TGI recorded for "COC(=O)c1ncc2c(=O)[nH]c3ccccc3c2c1C(=O)OC" was > 100 µM

Note to self: TGI recorded for S=c1c2[nH]cnc2ncn1CCSC1=NC=NC2=NC=NC21 (centres undefined) was > 100 µM

Note to self: TGI recorded for "CN(C)CCC(CCN(C)C)=NO" was > 100 µM

Note to self: TGI recorded for CCOC(=O)CC1(Cc2ccc(OCc3ccccc3)cc2)C(=O)OC(c2ccccc2)N1C(=O)c1ccccc1 (centres undefined) was > 100 µM

Note to self: TGI recorded for "CC1=C(C)C(=O)O[C@@H]([C@](C)(O)[C@]2(O)CC[C@@]3(O)[C@@H]4C[C@H](O)[C@]5(O)[C@@H](O)C=CC(=O)[C@]5(C)[C@H]4CC[C@]23C)C1" was > 100 µM

====

# Test system: M14 melanoma
# experiment_description: NCI tumour cell line growth inhibition, 48 h
recorded_endpoint: log10 of TGI (log10 of the value in µM)
Please keep in mind that the values are log10 of TGI expressed in µM.

GET /values?item= "COC(=O)c1cc2oc(/C=C3/SC(=S)N(N)C3=O)cc2n1Cc1ccccc1" &system= M14 melanoma returns log10 of TGI: 1.49

GET /values?item= "Clc1cc(Cl)c(OCCCCCCN2CCNCC2)c(Cl)c1" &system= M14 melanoma returns log10 of TGI: 0.56

GET /values?item= C/C(N)=C/C(=O)c1[nH]c(C(=O)O)cc1C1CCN(Cc2ccccc2)C1=O (stereo unspecified) &system= M14 melanoma returns log10 of TGI: 1.59

GET /values?item= "CC(C)(C)OC(=O)N1C(OP(=O)(Oc2ccccc2)Oc2ccccc2)=CSc2ccccc21" &system= M14 melanoma returns log10 of TGI: 1.84

GET /values?item= "CN/C=C(\C(=O)c1ccc(OC)c(OC)c1)c1ccc(OC)cc1" &system= M14 melanoma returns log10 of TGI: 1.57

GET /values?item= "N#CC(C#N)=C1CCOc2ccc(F)cc21" &system= M14 melanoma returns log10 of TGI: 1.66

GET /values?item= "Cc1ccc2cccc(OC(=O)Nc3cccc(C(F)(F)F)c3)c2n1" &system= M14 melanoma returns log10 of TGI: 1.21

GET /values?item= "O=C(c1ccc(C(F)(F)F)c(Cl)c1)N(Cc1ccc(Cl)cc1)c1ccc(-c2cc(C(F)(F)F)[nH]n2)c(O)c1" &system= M14 melanoma returns log10 of TGI: 0.39

GET /values?item= COc1ccc(CCN(CC(=O)N(CC(N)=O)C2CCC[C@@H]2OCc2ccccc2)C(=O)CN(C(=O)CN(CCc2ccc(Cl)cc2)C(=O)CN(C(=O)CN(C)Cc2ccccc2F)[C@H](C)C2CCCCC2)[C@H](C)C2CCCCC2)cc1OC (stereo partly specified) &system= M14 melanoma returns log10 of TGI: 0.61

GET /values?item= "O=C(COc1cccc(/C=C2\CSc3ccc(Cl)cc3C2=O)c1)c1ccc(Cl)cc1" &system= M14 melanoma returns log10 of TGI: 1.45

====

What TGI was measured for each of the following?
# System: EKVX NSCLC
# experiment_description: NCI tumour cell line growth inhibition, 48 h

Note to self: TGI recorded for "CCCCCCn1c(SC)nc(COC(=O)NC)c1COC(=O)NC" was 27.1 µM

Note to self: TGI recorded for "CSc1nn(C)cc2ncnc1-2" was > 100 µM

Note to self: TGI recorded for CCCC1CC(=O)NC(=O)C1C(=O)OC(C)(C)C (stereo not given) was > 100 µM

Note to self: TGI recorded for "C[C@@H]1C(=O)O[C@H]1[C@H](O)CO" was > 100 µM

Note to self: TGI recorded for CC(C)CCNC(=O)C(CC(C)C)NC(=O)[C@H]1O[C@@H]1C(=O)O (stereo not given in full) was > 100 µM

Note to self: TGI recorded for CCCCCCCCCCCCCCCCCCNc1ccn(C2OC(CO)C(OP(=O)(O)OCC(O)COP(=O)(O)OCC3OC(n4cc(F)c(NCCCCCCCCCCCCCCCCCC)nc4=O)CC3O)C2O)c(=O)n1 (stereo not given) was > 50 µM

Note to self: TGI recorded for "Nc1ccc(O)c2c1C(=O)c1c(N)ccc(O)c1C2=O" was > 100 µM

Note to self: TGI recorded for "C=C(C)[C@@H]1CCC2=C[C@H](C/C(C)=C\C3=CC(C)=C(O3)[C@H]1O)OC2=O" was > 100 µM

Note to self: TGI recorded for CCOC(=O)C(NC(C)=O)(Nc1ccc(S(N)(=O)=O)cc1)C(F)(F)F (stereo not given) was > 100 µM

Note to self: TGI recorded for "O=C(Cc1ccccc1)NN1C(=O)/C(=C\c2cccc([N+](=O)[O-])c2)SC1=Nc1ccccc1" was > 100 µM

Note to self: TGI recorded for "Nc1[nH]c(=S)nc2nc3c(c(-c4ccccc4)c12)CCCC3" was > 100 µM

Note to self: TGI recorded for "O=C1/C(=C/c2ccc(O)cc2)CCc2ccc([N+](=O)[O-])cc21" was > 100 µM

Note to self: TGI recorded for "C#Cc1cccc(Nc2ncnc3ccc(OCCCCNCCS(C)(=O)=O)cc23)c1" was > 25 µM

Note to self: TGI recorded for CC(=O)O[C@H]1CCN2C(=O)C=CC(OCc3ccccc3)C12 (stereo not given in full) was > 100 µM

Note to self: TGI recorded for "O=C(O)c1ccc(C(O)(c2ccccc2)c2ccccc2)cc1" was > 100 µM

Note to self: TGI recorded for "O=C(O)C1(Cc2ccccc2)Cc2cc3c(cc2C1)CCC3" was > 100 µM

Note to self: TGI recorded for COc1cc2cc(C(=O)N3CC(CCl)c4ccc([N+](=O)[O-])cc43)[nH]c2c(OC)c1OC (stereo not given) was 67.2 µM

Note to self: TGI recorded for "C[C@@H](NS(=O)(=O)c1ccc(NC(=O)c2ccccc2)cc1)C(=O)O" was > 100 µM

Note to self: TGI recorded for "CC1=C(C)C(=O)O[C@@H]([C@](C)(O)[C@]2(O)CC[C@@]3(O)[C@@H]4C[C@H](O)[C@]5(O)[C@@H](O)C=CC(=O)[C@]5(C)[C@H]4CC[C@]23C)C1" was > 100 µM

Note to self: TGI recorded for O=C(NC(Cc1ccc(Br)cc1)C(=O)O)c1ccc(I)cc1 (stereo not given) was > 100 µM

====

# Test system: CCRF-CEM leukemia
# experiment_description: NCI tumour cell line growth inhibition, 48 h
recorded_endpoint: GI50

Note to self: GI50 recorded for "C#CC(=O)Nc1cccc2c1cc(C)n2-c1nc2c(c(NCc3ccccc3)n1)CCCC2" was 0.0255 µM

Note to self: GI50 recorded for "CCN(CC)CC[n+]1ccc2c(C)c3[nH]c4ccc(O)cc4c3c(C)c2c1" was 0.808 µM

Note to self: GI50 recorded for "C=CC(=O)NC(N)=NC#N" was 130 µM

Note to self: GI50 recorded for "COc1ccc(NC2=C(I)C(=O)c3ncccc3C2=O)cc1" was 2.04 µM

Note to self: GI50 recorded for "CC1(C)N=C(N)N=C(N)N1c1ccc(OCCCNC(=O)Nc2cccc(S(=O)(=O)F)c2)c(Cl)c1" was 3.62 µM

Note to self: GI50 recorded for "CC(C)(C)CC(C)(C)c1ccc(O)c(Cc2ccc(Cl)cc2Cl)c1" was 1.53 µM

Note to self: GI50 recorded for "COC(=O)c1cc2oc(/C=C3/SC(=S)N(N)C3=O)cc2n1Cc1ccccc1" was > 100 µM

Note to self: GI50 recorded for CCOC(=O)C1=C(C)NC(=O)NC1CN1C(=O)c2ccccc2C1=O (stereo not given) was > 100 µM

Note to self: GI50 recorded for "Cn1cc(-c2nc(-c3c[nH]c4ncccc34)cs2)c2ccccc21" was 24.1 µM

Note to self: GI50 recorded for "COc1cc(/C=C2\CCC/C(=C\c3ccc(O)c(OC)c3)C2=O)ccc1O" was 0.366 µM
